pIC50 reference
- assayed.target: human neutrophil elastase (HNE) (Homo sapiens)
- assay.name: In vitro HNE inhibition assay
- test.conditions: 80 pM HNE, 20 μM MeOSuc-Ala-Ala-Pro-Val-AMC, 37° C., 2 hours, fluorescence
Lab note: report pIC50 as minus log10 of the concentration in molar units, number only.

Example cases with answers are listed next.
CC(=O)C1=C(C)N(c2ccc(F)c(C(F)(F)F)c2)C(=O)N[C@@H]1c1ccc(C#N)cc1
8.28
CC1=C(C(=O)C(C)C)[C@@H](c2ccc(C#N)cc2)N(CC(=O)O)C(=O)N1c1cccc(C(F)(F)F)c1
8.54
CCOC(=O)C1=C(C)N(c2cccc(C(F)(F)F)c2)C(=O)N(CC(=O)N(C)C)[C@@H]1c1ccc(C#N)cc1
9.40
CC(=O)C1=C(C)N(c2cccc(C(F)(F)F)c2)C(=O)N(Cc2cccc(C(=O)O)c2)[C@@H]1c1ccc(C#N)cc1
8.41
CC1=C(C(=O)C2CCC2)[C@@H](c2ccc(C#N)cc2)N(CC(=O)O)C(=O)N1c1cccc(C(F)(F)F)c1
8.37

Input CC(=O)C1=C(C)N(c2cccc(C(F)(F)F)c2)C(=O)N(Cc2ccc(C(=O)O)cc2)[C@@H]1c1ccc(C#N)cc1 . Output pIC50: 8.54

* * *

- assayed.target: human neutrophil elastase (HNE) (Homo sapiens, UniProt P08246)
- Sequence (P08246 30-267): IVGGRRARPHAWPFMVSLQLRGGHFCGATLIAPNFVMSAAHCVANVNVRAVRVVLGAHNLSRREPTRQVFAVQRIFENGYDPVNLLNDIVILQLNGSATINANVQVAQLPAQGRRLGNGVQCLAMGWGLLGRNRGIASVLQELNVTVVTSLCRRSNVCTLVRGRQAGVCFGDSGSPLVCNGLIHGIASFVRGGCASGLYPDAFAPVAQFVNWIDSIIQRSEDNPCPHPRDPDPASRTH
- assay.name: In vitro HNE inhibition assay
- test.conditions: 80 pM HNE, 20 μM MeOSuc-Ala-Ala-Pro-Val-AMC, 37° C., 2 hours, fluorescence
measure: pIC50
Lab note: report pIC50 as minus log10 of the concentration in molar units, number only.

Example cases with answers are listed next.
CC(=O)C1=C(C)N(c2cccc(C(F)(F)F)c2)C(=O)N(CC(N)=O)[C@@H]1c1ccc(C#N)cc1
8.26
CC1=C(C(=O)C2CCC2)[C@@H](c2ccc(C#N)cc2)NC(=O)N1c1cccc(C(F)(F)F)c1
7.83

Then this compound:
Input CC1=C(C(=O)OCCO)[C@@H](c2ccc(C#N)cc2)N(CC(N)=O)C(=O)N1c1cccc(C(F)(F)F)c1 . Output pIC50: 8.85
